Each record here notes measured IC90, HCVpp neutralization.
target: E1E2 of HCV isolate AMS.1b.20877857 (genotype 1b) (Hepatitis C virus genotype 1b); test: cell-based or functional assay
Number only, in µg/mL; omit the unit.

- BINDER: "AT12-010 (antibody, V domains shown) VH: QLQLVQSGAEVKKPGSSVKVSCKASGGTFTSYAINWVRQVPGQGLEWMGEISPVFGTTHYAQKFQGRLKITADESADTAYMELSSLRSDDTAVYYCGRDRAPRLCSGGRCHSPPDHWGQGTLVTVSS VL: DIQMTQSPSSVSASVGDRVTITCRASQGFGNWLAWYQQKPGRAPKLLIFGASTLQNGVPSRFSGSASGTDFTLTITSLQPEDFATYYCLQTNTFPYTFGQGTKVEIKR"
  IC90, HCVpp neutralization, µg/mL: 8.51
- BINDER: "AT13-021 (antibody, V domains shown) VH: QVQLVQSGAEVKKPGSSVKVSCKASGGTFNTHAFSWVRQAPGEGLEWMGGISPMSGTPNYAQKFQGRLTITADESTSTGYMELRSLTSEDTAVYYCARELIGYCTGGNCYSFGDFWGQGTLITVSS VL: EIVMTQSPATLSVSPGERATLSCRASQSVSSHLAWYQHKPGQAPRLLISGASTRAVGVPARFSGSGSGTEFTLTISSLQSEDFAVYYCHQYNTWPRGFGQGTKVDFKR"
  IC90, HCVpp neutralization, µg/mL: 5.67

State the recorded IC90, HCVpp neutralization for this entry: AT12-007 (antibody, V domains shown) VH: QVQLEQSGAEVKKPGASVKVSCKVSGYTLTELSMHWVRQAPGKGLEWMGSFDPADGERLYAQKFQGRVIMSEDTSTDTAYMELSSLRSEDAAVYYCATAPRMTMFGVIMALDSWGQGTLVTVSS VL: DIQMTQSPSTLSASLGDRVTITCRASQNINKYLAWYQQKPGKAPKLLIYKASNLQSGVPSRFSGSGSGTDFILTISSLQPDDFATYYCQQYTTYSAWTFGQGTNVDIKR
0.5
